Entry source: patent US20090149417A1

# Test system: NIH: OVCAR-3
# PROCEDURE TEXT: BrdU chemiluminescent cell proliferation assay
# Type: cell-based, human
# APPLIED CONDITIONS: Homo sapiens, OVCAR-3, 72 h, mean of Exp1 and Exp2; 72 hour treatment; read-out: Mean IC50
# Method: Test Agents—Cells are treated 24 hours after plating (Day 1) with vehicle or test agents at concentrations of 0.1 μM, 0.3 μM, 1 μM, 3 μM, 10 μM, 30 μM and 100 μM. […] Cell proliferation assay—Cell proliferation is determined using BrdU chemiluminescent assay, which measures incorporation of 5-bromo-2′-deoxyuridine (BrdU) into the genomic DNA of proliferating cells. […] The reaction product is quantified by measuring light emission using a scanning multi-well luminometer (luminescence ELISA reader.) […]
pIC50: −log10 of the molar value.

{"columns": ["CHEM SMILES", "pIC50"],
 "data": [
  ["O=c1ccc2c(I)c([N+](=O)[O-])ccc2o1", 4.52]
]}

* * *

# Tested on: MX-1
# PROCEDURE TEXT: BrdU chemiluminescent cell proliferation assay
# Type: cell-based, human
# APPLIED CONDITIONS: Homo sapiens, MX1; Exp2; 72 hour treatment; read-out: IC50
# Procedure: Test Agents—Cells are treated 24 hours after plating (Day 1) with vehicle or test agents at concentrations of 0.1 μM, 0.3 μM, 1 μM, 3 μM, 10 μM, 30 μM and 100 μM. […] Cell proliferation assay—Cell proliferation is determined using BrdU chemiluminescent assay, which measures incorporation of 5-bromo-2′-deoxyuridine (BrdU) into the genomic DNA of proliferating cells. […] The reaction product is quantified by measuring light emission using a scanning multi-well luminometer (luminescence ELISA reader.) […]
pIC50: −log10 of the molar value.
ASSAY READOUT: pIC50

{"columns": ["CHEM SMILES", "VALUE REPORTED"],
 "data": [
  ["O=c1ccc2c(I)c([N+](=O)[O-])ccc2o1", 4.57]
]}

* * *

# Test system: MDA-MB-231
# PROCEDURE TEXT: BrdU chemiluminescent cell proliferation assay
# Format: cell-based, human
# APPLIED CONDITIONS: Homo sapiens, MDA-MB-231, 72 h, mean of Exp1 and Exp2; 72 hour treatment; read-out: Mean IC50
pIC50: −log10 of the molar value.

{"columns": ["CHEM SMILES", "pIC50"],
 "data": [
  ["O=c1ccc2c(I)c([N+](=O)[O-])ccc2o1", 4.62]
]}

* * *

# Tested on: PC-3
# PROCEDURE TEXT: BrdU chemiluminescent cell proliferation assay
# Format: cell-based, human
# APPLIED CONDITIONS: Homo sapiens, PC-3, 72 h, Exp2; 72 hour treatment; read-out: IC50

{"columns": ["CHEM SMILES", "MEASURED TARGET", "IC50 [µM]"],
 "data": [
  ["O=c1ccc2c(I)c([N+](=O)[O-])ccc2o1", "PC-3", 25.3]
]}

* * *

# System: MDA-MB-231
# PROCEDURE TEXT: BrdU chemiluminescent cell proliferation assay
# Format: cell-based, human
# APPLIED CONDITIONS: Homo sapiens, MDA-MB-231, 72 h, Exp1; 72 hour treatment; read-out: IC50
pIC50: −log10 of the molar value.
ASSAY READOUT: pIC50

{"columns": ["CHEM SMILES", "VALUE REPORTED"],
 "data": [
  ["O=c1ccc2c(I)c([N+](=O)[O-])ccc2o1", 4.62]
]}
